Test system: NCI/ADR-RES ovarian
test.details: NCI tumour cell line growth inhibition, 48 h
// values below are reported TGI

[
  {
    "smiles.data": "CCCCCCCC/C=C\\CCCCCCCC(=O)OC[C@]1(CO)CCC(=O)O1",
    "TGI": "> 100 µM"
  },
  {
    "smiles.data": "N#C/C(=C\\c1ccc(F)cc1)c1nc2ccccc2c(=O)[nH]1",
    "TGI": "> 100 µM"
  },
  {
    "smiles.data": "CC(C)(C)CC(C)(C)N(CSc1ccc(Cl)cc1)CSc1ccc(Cl)cc1",
    "TGI": "> 100 µM"
  },
  {
    "smiles.data": "O=C1CCc2nc3ncccc3cc2C1",
    "TGI": "> 100 µM"
  },
  {
    "smiles.data": "O=C1N(CN2CCOCC2)CN(CN2CCOCC2)C(=O)N1Cc1ccc(-c2ccc(CN3C(=O)N(CN4CCOCC4)CN(CN4CCOCC4)C3=O)cc2)cc1",
    "TGI": "80.8 µM"
  }
]

----------
// values below are reported TGI
Tested on: SK-MEL-5 melanoma
test.details: NCI tumour cell line growth inhibition, 48 h

[
  {
    "compound": "CN(C)CCn1c(=O)oc2cc(C(=O)CN3CCOCC3)ccc21",
    "assay.target": "SK-MEL-5 melanoma",
    "value.operator": ">",
    "TGI (µM)": 100
  },
  {
    "compound": "CCN(CC)CCSc1n[nH]c(-c2c[nH]c3nc(C)ccc3c2=O)n1",
    "assay.target": "SK-MEL-5 melanoma",
    "value.operator": ">",
    "TGI (µM)": 100
  },
  {
    "compound": "CC(C)(Cl)C(Br)CCC(CBr)=C(Cl)CCl (mixture of isomers)",
    "assay.target": "SK-MEL-5 melanoma",
    "value.operator": "=",
    "TGI (µM)": 3.87
  },
  {
    "compound": "FC(F)(F)c1[nH]ncc1-c1nc2c(N3CCCCC3)cc3[nH]ncc3c2c2c1CCCC2",
    "assay.target": "SK-MEL-5 melanoma",
    "value.operator": "=",
    "TGI (µM)": 1.5
  },
  {
    "compound": "C=CC[N+]1(CCO)CCN=C1CCCCCCCCCCCCC (stereo not given)",
    "assay.target": "SK-MEL-5 melanoma",
    "value.operator": "=",
    "TGI (µM)": 2.95
  },
  {
    "compound": "CC(=O)c1cccc(Nc2c3ccccc3nc3occc23)c1",
    "assay.target": "SK-MEL-5 melanoma",
    "value.operator": "=",
    "TGI (µM)": 23
  },
  {
    "compound": "COc1ccc(-c2nn(-c3ccc(NC(=O)Nc4ccc(Cl)c(Cl)c4)cc3)cc2-c2ccncc2)cc1Cl",
    "assay.target": "SK-MEL-5 melanoma",
    "value.operator": "=",
    "TGI (µM)": 5.96
  },
  {
    "compound": "COc1cc2c(cc1OC)C(=O)Cc1ccc3c(c1CNCC2)OCO3",
    "assay.target": "SK-MEL-5 melanoma",
    "value.operator": ">",
    "TGI (µM)": 100
  },
  {
    "compound": "O=S(Nc1ccccc1)c1ccc(-c2ccccc2)cc1 (stereo not given)",
    "assay.target": "SK-MEL-5 melanoma",
    "value.operator": ">",
    "TGI (µM)": 100
  },
  {
    "compound": "CCCCCCCCCCCCOC1C(CNCC2OC3OC(C)(C)OC3C2NC(=O)Nc2ccc(C(F)(F)F)cc2)OC2OC(C)(C)OC21 (stereo not given)",
    "assay.target": "SK-MEL-5 melanoma",
    "value.operator": "=",
    "TGI (µM)": 15.1
  }
]

Where do the numbers come from? From PubChem BioAssay (NCI).
